Entry source: patent US20230192819A1

target: California Variant W152C_L452R_D614G
pIC50: −log10 of the molar value.

[
  {
    "binder": "Antibody 1-8 (Fc fusion) EVQLVESGGGLVQPGGSLRLSCAASGRTLSRYTMGWFRQAPGKEREFVASITSGGTTNYADSVKGRFTISADNSKNTAYLQMNSLKPEDTAVYYCAKEDVGKPFDWGQGTLVTVSS",
    "pIC50": 8.57
  },
  {
    "binder": "Antibody 1-7 (Fc fusion) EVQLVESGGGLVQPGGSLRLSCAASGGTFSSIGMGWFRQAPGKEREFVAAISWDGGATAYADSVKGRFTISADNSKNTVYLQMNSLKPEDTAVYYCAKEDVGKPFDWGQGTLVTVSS",
    "pIC50": 9.96
  },
  {
    "binder": "Antibody 1-15 (Fc fusion) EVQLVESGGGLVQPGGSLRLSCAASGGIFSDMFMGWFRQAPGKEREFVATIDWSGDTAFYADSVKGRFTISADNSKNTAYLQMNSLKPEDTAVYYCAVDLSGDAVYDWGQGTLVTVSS",
    "pIC50": 7.18
  }
]
